- subject.of.test: T1, GST-CASK PDZ domain fusion protein (Homo sapiens, UniProt O14936 486-575)
- T1 construct: also called Homo sapiens CASK protein
- T1 sequence: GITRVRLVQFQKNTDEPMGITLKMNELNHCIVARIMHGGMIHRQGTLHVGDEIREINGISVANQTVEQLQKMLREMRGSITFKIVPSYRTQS
- assay.details: A/G assays
Ends that are not written are not given here. * marks the point of attachment. Biotin = O=C1N[C@H]2[C@H](CS[C@H]2CCCCC(=O)*)N1
observation.type: binding result

Examples with their reported binding result follow.
>>> reported_measurement("Biotin-PYGTAMEKAQLKPPATSDA (also called CD49E (alpha-4)) [CD49E C-terminal peptide AA11L, biotinylated]")
"no binding"
>>> reported_measurement("Biotin-AWDDSARAAGGQGLHVTAL [LPAP C-terminal peptide AA30L, biotinylated]")
"no binding"
>>> reported_measurement("Biotin-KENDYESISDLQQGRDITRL (also called Phosphoprotein Associated with GEMs) [PAG C-terminal peptide AA58L, biotinylated]")
"no binding"
>>> reported_measurement("Biotin-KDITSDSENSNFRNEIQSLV (also called CD95 (Apo-1/Fas); AAI3L) [CD95 (Fas) C-terminal peptide AA13L, biotinylated]")
"no binding"
>>> reported_measurement("Biotin-SFPPCGHRENVPGQSLVSFV (Marked (S), sticky; also called Spectrin beta (S); Spectrin β) [Spectrin (beta) C-terminal peptide AA32L, biotinylated]")
"no binding"

Can you share its binding result? I mean this binder: Biotin-SSKSKSSEESQTFFGLYKL (not fully specified, also called FasLigand; Fas ligand) [FasL C-terminal peptide AA23L-M, biotinylated]
no binding

Can you share its binding result? I mean this binder: Biotin-VTSPNKHLGLVTPHKTELV [CD83 C-terminal peptide AA47L, biotinylated]
no binding

Can you share its binding result? I mean this binder: Biotin-KKGTYLTDETHREVKFTSL [CD46 (Form 1) C-terminal peptide AA10L, biotinylated]
no binding
